Assay: physchem
Conditions: distilled water, 30 °C, thermodynamic from solid
PROPERTY_LABEL: solubility at 3 h
Answer shape: numeric part, then the unit.

Record summary for CC(C)=CC[C@@H](O)[C@@H](C)[C@H]1CC[C@@]2(C)C3=C(CC[C@]12C)[C@@]1(C)CC[C@H](O)C(C)(C)[C@@H]1CC3 : reported solubility at 3 h = 0.5 µg/mL

---

Assay: physchem
Settings: 30 °C, water, thermodynamic from solid
PROPERTY_LABEL: solubility at 3 h (mg/mL)
Entry rule: numbers only, all in mg/mL.

Record summary for CC(C)=CC[C@@H](O)[C@@H](C)[C@H]1CC[C@@]2(C)C3=C(CC[C@]12C)[C@@]1(C)CC[C@H](O)C(C)(C)[C@@H]1CC3 : reported solubility at 3 h = 31
